Listed here: items and their measured protein stability index.
- experimentalProtocol: protein stability index of a GFP-peptide fusion (GPS, HEK-293T) (PSI 1-6); higher = more stable;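 also: 24-mer peptide tiles fused after GFP, lentivirally expressed, FACS-sorted into six equal bins by GFP/DsRed ratio, decoded by Illumina sequencing, PSI is the read-weighted mean bin number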
- studyConditions: treatment: MLN4924 1 uM, 8 h; c terminus: a fixed tail appended

These solved cases illustrate the format of a correct answer.
>  <orderedResidues>
ANISIANKYDNTCLMIAAYKGHTD [FEM1B]

>  <protein stability index>
2.98

$$$$
>  <orderedResidues>
DQFDKDLPVYLKKDPAYFYGYVYF [DENND6A]

>  <protein stability index>
2.19

$$$$
>  <orderedResidues>
SNISRPRDNPMCLKCDLQERLLCP [M1AP]

>  <protein stability index>
3.05

$$$$

Task item: Can you share its protein stability index? I mean this sequence: RPPGHHAQHSLMDGYCMFNHVAVA [HDAC6]
Reply: 2.27

Task item: Param item = AQEVSPCGPPSLGAVLALVAIFIM [MFSD9] ; retrieve measured protein stability index.
Reply: 1.93

Task item: For the sequence shown here, FIARLQGSILQFNPEVGIFVSIAQ [SMG5] , give the reported protein stability index.
Reply: 2.64

Task item: Value lookup for protein stability index; key = PDTGDNARLTYSIVGNQVQGAPAS [PCDHGC5]
Reply: 4.52

Task item: Entry under review: STWLILHHKVYDLTKFLEEHPGGE [CYB5A] . Reported protein stability index?
Reply: 2.21

###

- experimentalProtocol: protein stability index of a GFP-peptide fusion (GPS, HEK-293T) (PSI 1-6); higher = more stable
- studyConditions: treatment: DMSO; c terminus: a fixed tail appended
Entries and their protein stability index

Recorded protein stability index, per entry:
>  <orderedResidues>
LHYAAMHGRARIARLMLESEYRSD [ASB7]

>  <quantityKind>
protein stability index

>  <observedMeasurement>
2.73

$$$$
>  <orderedResidues>
YGCKVADIKKVNNFIREQDLYALK [LYSMD4]

>  <quantityKind>
protein stability index

>  <observedMeasurement>
2.27

$$$$
>  <orderedResidues>
ILSACSPYFRAMFTGELAESRQTE [KLHL20]

>  <quantityKind>
protein stability index

>  <observedMeasurement>
2.06

$$$$
>  <orderedResidues>
KDLFTQRQNSAPARMLSSNERDSS [CDC25A]

>  <quantityKind>
protein stability index

>  <observedMeasurement>
4.88

$$$$
>  <orderedResidues>
TERLSHQITSRVVSAATQLRHFFL [RTN2]

>  <quantityKind>
protein stability index

>  <observedMeasurement>
4.1

$$$$
>  <orderedResidues>
RREKAVHRLRVQQAALRAARLRHQ [NOP53]

>  <quantityKind>
protein stability index

>  <observedMeasurement>
3.6

$$$$

Could you now look at the following sequence, please?
Task item: Using the record for LVEAVLSGEVLNGAAVVRPPGHHA [HDAC6] , report its protein stability index.
Reply: 2.27

###

- experimentalProtocol: protein stability index of a GFP-peptide fusion (GPS, HEK-293T) (PSI 1-6); higher = more stable
- studyConditions: treatment: MLN4924 1 uM, 8 h; c terminus: a fixed tail appended
quantityKind: protein stability index
Please reply with the number alone, leaving off any unit.

>  <orderedResidues>
ETRRRMEMAFNTRCKEENTIILQQ [NLN]

>  <protein stability index>
2.98

$$$$

Task item: What does the record list as protein stability index for VQLSQIQGLIGSVEEQLAQLRCEM [KRT17] ?
Reply: 2.79

Task item: Which measured protein stability index value corresponds to LLKRIKKCCGMRNTDVSMENMVTV [KCNK9] ?
Reply: 2.32

Task item: Find the recorded protein stability index belonging to EVALDKGCSQFRLAVLDWNQRAMD [SAT2] and report it.
Reply: 2.95
